The origin of these recorded values is the RNAGym collection of RNA variant scans (doi:10.1093/molbev/msab373).

B1: Azoarcus group I ribozyme (parent)
chain: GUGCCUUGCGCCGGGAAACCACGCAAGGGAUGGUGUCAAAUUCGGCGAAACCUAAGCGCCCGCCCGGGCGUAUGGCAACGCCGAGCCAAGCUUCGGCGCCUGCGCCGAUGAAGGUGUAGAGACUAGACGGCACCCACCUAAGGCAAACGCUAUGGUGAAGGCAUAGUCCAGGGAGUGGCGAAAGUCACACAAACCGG

# Variants of: B1
# Assay Text: reverse-splicing fitness (ratio to wild type); higher = more active; in vitro selection; Mg2+ level not given
Label n if reverse-splicing fitness falls below 0.009; label y in every other case.

- C82U A111C A120U A145U C150U C169U U176G: n
- A120G C150U: y
- C82A A111U A145C C150U C169U U176G: n
- A111C A120U A145G C150A C169A U176G: n
- C82G A111G A120U A145G C169A U176C: n
- A111G A145G C150G C169A U176G: n
- C82U A120G A145C C150G C169U U176A: y
- C82U A111C A120C A145G C150G U176C: y
- C82U A111C A120C A145G U176G: n
- C82U A111U A120G A145G C169U U176C: y
- C82G A111C A120C A145C C150G C169A U176C: n
- A111G A120G A145G C150G C169U U176G: n
- C82A A111G A120C A145U C150U C169G U176A: y
- A120U A145G C150G C169G U176G: n
- A111C A120G A145G C169A U176A: y
- A111C A120G A145G C150G U176C: y
- A111C A145G C150A U176G: y
- A111C A120U A145C C150U U176G: y
- C82A A120G A145G C150U C169G U176G: n
- A120C A145U C150U C169U: y
- C82U A111G A145G C150G C169A U176G: n
- C82A A120G A145G C169A U176A: y
- C82G A111G A120C A145G C150U C169U U176G: n
- C82A A111G A120C A145C C150U C169A U176A: y
- C82U A111C A120G A145C C169U: n
- C82A A111G A145C C169G U176G: n
- C82U A111G A120U A145G C150U C169U: n
- C82G A120U A145U C150U: y
- A111C A120U A145C U176A: y
- C82A A111C A120U A145G C169G U176A: n
- C82U A111U A120C A145U C150U C169A U176A: y
- C82U A111C A120G A145G C150G: n
- A120G C150G C169G U176A: y
- A111C A120G A145U C169A: y
- C82A A111G A120U A145U C150U C169G: n
- C82G A111U A145C C150G C169A U176A: y
- A111C A120U A145G C150U C169U U176C: y
- C82A A111G A120C A145C C150U C169G U176G: n
- A120C A145U C150U U176A: y
- A111C A120G A145C C150U C169U U176G: n
- C82A A111G A120C A145G C150U C169U U176A: y
- C82U A120G C150G C169A U176C: y
- C82G A111G A120U A145G C150A C169G U176A: y
- A111G A120C A145U C150G C169A U176G: n
- A111C A120C A145G C150A C169A: y
- C82A A111U A120U A145G C150A C169G U176C: n
- C82U A120U A145C C150G C169A U176A: n
- C82G A120U A145G C150G C169G U176C: n
- C82U A111G A145U C150A U176C: y
- C82U A111C A120U A145C C169A U176A: n
- C82A A111U A120C A145C C150A C169A U176G: n
- C82A A111U A145G C150A U176C: y
- C82A A120U A145C C150G C169A: n
- A120G A145G C150G C169U U176G: n
- C82G A145C: y
- C82G A111G A120G A145C C150A C169G U176G: n
- C82G A111C A120G A145G C169U U176C: y
- C82U A111G A120G A145U C150G C169G: n
- C82G A111U A145G C169G U176G: n
- C82A A145U C150G C169A U176A: y
- C82G A111U A120G A145C C150U C169U U176G: n
- C82A A111C A145G C150A C169U U176C: y
- C82G A145C C150A C169A U176A: y
- C82A A120G A145U C150U C169U: y
- A111C A120C A145U C150A: y
- C82G A111U A120G C169A U176G: n
- C82A A111G A120U C150G C169A: n
- C82G A111G A120C C150U C169A U176A: y
- A111G A145U C150A U176A: y
- A120G A145U C150G C169U U176C: y
- A111U A120U C150G C169A U176G: n
- C82G A111U A120U A145G C150U U176G: n
- C82G A111C A120G A145U C150A C169U U176A: y
- C82G A111G A145C C150U C169A U176C: n
- A111U A120C C150A C169A U176G: n
- A111U A120C A145U C150A C169A U176C: n
- A111G A145C C150G C169A: y
- A120U A145G C150A C169A U176G: n
- C82G C150A C169U U176A: y
- C82G A111G A120C A145U C150G C169U U176G: n
- A111G A120U C169U: y
- C150G: y
- C82G A111G A120C A145U C150A U176A: y
- C82A A111G A120C A145G C169G U176C: y
- C82G A111U A120C A145U C150A C169U U176A: y
- A120G C150A U176C: y
